system: Danio rerio larvae (5 dpf); assay: optomotor response to green moving lines, difference vs DMSO (percentage points (treated minus DMSO)); higher = more of the behaviour than the DMSO vehicle control; settings: 10 µM; exposure time: 3 h pre-incubation + 3 h imaging
Counter-ions that a name gives are not always drawn.
PROPERTY: optomotor response to green moving lines

1. CC(C)(C#N)c1cc(Cn2cncn2)cc(C(C)(C)C#N)c1 | -2.71
2. CN(C)CCc1c[nH]c2ccc(C[C@H]3COC(=O)N3)cc12 | 6.88
3. CC(=O)Oc1ccccc1C(=O)O | -12.5
4. CCC(=O)O[C@]1(C(=O)SCF)[C@H](C)C[C@H]2[C@@H]3C[C@H](F)C4=CC(=O)C=C[C@]4(C)[C@@]3(F)[C@@H](O)C[C@@]21C [Fluticasone propionate] | 2.35
5. CN(C)CC/C=C1/c2ccccc2COc2ccc(CC(=O)O)cc21 [Olopatadine hydrochloride] | 5.77
6. COc1cc2nc(N3CCN(C(=O)C4COc5ccccc5O4)CC3)nc(N)c2cc1OC (stereo unspecified) [Doxazosin mesylate] | -8.3
7. COc1ccccc1OCCNCC(O)COc1cccc2[nH]c3ccccc3c12 (stereo unspecified) | -14.2
8. COc1cc(Nc2c(C#N)cnc3cc(OCCCN4CCN(C)CC4)c(OC)cc23)c(Cl)cc1Cl | 2.65
9. COc1ccc([C@@H]2Sc3ccccc3N(CCN(C)C)C(=O)[C@@H]2OC(C)=O)cc1 [Diltiazem hydrochloride] | -3.02
10. Cc1ccsc1C(=CCCN1CCC[C@@H](C(=O)O)C1)c1sccc1C [Tiagabine hydrochloride] | 8.59

QUERY: optomotor response to green moving lines for CCc1ccc(CCOc2ccc(CC3SC(=O)NC3=O)cc2)nc1 (stereo unspecified) [Pioglitazone hydrochloride] ?
RESULT: -7.6

QUERY: Given CC(C)Nc1cccnc1N1CCN(C(=O)c2cc3cc(NS(C)(=O)=O)ccc3[nH]2)CC1 [Delavirdine mesylate] , state its recorded optomotor response to green moving lines.
RESULT: -4.7

QUERY: Consider the molecule shown here: CC(C)(C)NC(=O)[C@@H]1C[C@@H]2CCCC[C@@H]2CN1C[C@@H](O)[C@H](Cc1ccccc1)NC(=O)[C@H](CC(N)=O)NC(=O)c1ccc2ccccc2n1 [Saquinavir mesylate] What is its recorded optomotor response to green moving lines?
RESULT: -3.04

QUERY: So what's the measured optomotor response to green moving lines for this one? CC(C)[C@H]1CC[C@H](C(=O)N[C@H](Cc2ccccc2)C(=O)O)CC1 [Nateglinide]
RESULT: 4.02

QUERY: Give the measured optomotor response to green moving lines of COc1cc(N)c(Cl)cc1C(=O)NC1CCN(CCCOc2ccc(F)cc2)CC1OC (stereo unspecified) [Cisapride] .
RESULT: 5.81

QUERY: I would be grateful if you could share the reported optomotor response to green moving lines for CCOC(=O)c1ncn2c1CN(C)C(=O)c1cc(F)ccc1-2 .
RESULT: 15

====

tested on: Danio rerio larvae (5 dpf); assay: excitability to 1-s acoustic pulses, difference vs DMSO (percentage points (treated minus DMSO)); higher = more of the behaviour than the DMSO vehicle control; settings: 10 µM; exposure time: 3 h pre-incubation + 3 h imaging
Counter-ions that a name gives are not always drawn.
PROPERTY: excitability to 1-s acoustic pulses
In your answer, state the number alone without any accompanying words.

Use these answered entries as a reference point.
1) CNS(=O)(=O)Cc1ccc2[nH]cc(CCN(C)C)c2c1 [Sumatriptan succinate] | -8.18
2) CCCCCOC(=O)Nc1nc(=O)n([C@@H]2O[C@H](C)[C@@H](O)[C@H]2O)cc1F | 4.17
3) CN(C)C(=N)NC(=N)N [Metformin hydrochloride] | 4.58

Turning now to a further molecule:
QUERY: Given the entry Nc1ccn([C@@H]2O[C@H](CO)[C@@H](O)C2(F)F)c(=O)n1 [Gemcitabine hydrochloride] , report its measured excitability to 1-s acoustic pulses.
RESULT: -1.2

====

test system: Danio rerio larvae (5 dpf); assay: activity during first hour (no stimuli), difference vs DMSO (percentage points (treated minus DMSO)); higher = more of the behaviour than the DMSO vehicle control; settings: 10 µM; exposure time: 3 h pre-incubation + 3 h imaging
Please enter y where activity during first hour is greater than or equal to 5, and n where it is lower.

Examples with answers:
1) CC(C)C(=O)OCC(=O)[C@@]12O[C@H](C3CCCCC3)O[C@@H]1C[C@H]1[C@@H]3CCC4=CC(=O)C=C[C@]4(C)[C@H]3[C@@H](O)C[C@@]12C [Ciclesonide] | n
2) Cc1ccccc1C(=O)Nc1ccc(C(=O)N2CCCC(O)c3cc(Cl)ccc32)c(C)c1 (configuration not stated) [Tolvaptan] | n
3) CCCCNc1cc(C(=O)O)cc(S(N)(=O)=O)c1Oc1ccccc1 [Bumetanide] | n
4) CC(=O)O[C@H]1C(=O)[C@@]2(C)[C@H]([C@H](OC(=O)c3ccccc3)[C@]3(O)C[C@H](OC(=O)[C@H](O)[C@@H](NC(=O)c4ccccc4)c4ccccc4)C(C)=C1C3(C)C)[C@]1(OC(C)=O)CO[C@@H]1C[C@@H]2O [Taxol] | n

QUERY: Can COc1cc2nccc(Oc3ccc(NC(=O)C4(C(=O)Nc5ccc(F)cc5)CC4)cc3)c2cc1OC be said to have activity during first hour at or above 5?
RESULT: y

QUERY: Quick check, activity during first hour >= 5? CNS(=O)(=O)Cc1ccc2[nH]cc(CCN(C)C)c2c1 [Sumatriptan succinate]
RESULT: y

====

activity during period 15 values for the molecules below.
tested on: Danio rerio larvae (5 dpf); assay: activity during period 15 (no stimuli), difference vs DMSO (percentage points (treated minus DMSO)); higher = more of the behaviour than the DMSO vehicle control; conditions: 10 µM; exposure time: 3 h pre-incubation + 3 h imaging
Counter-ions that a name gives are not always drawn.
Answer with the value's number alone.

1. Nc1ncn([C@H]2C[C@H](O)[C@@H](CO)O2)c(=O)n1 | 1.76
2. Nc1ccn([C@@H]2O[C@H](CO)[C@@H](O)C2(F)F)c(=O)n1 [Gemcitabine hydrochloride] | -1.53
3. Cc1ccc(NC(=O)c2ccc(CN3CCN(C)CC3)cc2)cc1Nc1nccc(-c2cccnc2)n1 [Imatinib mesylate] | -11.6

QUERY: Request the reported activity during period 15 associated with CC(C)COCC(CN(Cc1ccccc1)c1ccccc1)N1CCCC1 (centres undefined) [Bepridil hydrochloride]
RESULT: 13.7

====

system: Danio rerio larvae (5 dpf); assay: activity during period 15 (no stimuli), difference vs DMSO (percentage points (treated minus DMSO)); higher = more of the behaviour than the DMSO vehicle control; conditions: 10 µM; exposure time: 3 h pre-incubation + 3 h imaging
Where a name gives a salt, the structure may show the parent alone.
The following compounds are listed with their measured activity during period 15 values.
Give your answer as a number; write no unit.

Recorded results for 3 compounds are shown here.
1. COc1ccc(-c2ccc3cc(C(=O)O)ccc3c2)cc1C12CC3CC(CC(C3)C1)C2 | -3.39
2. C[C@H]1C[C@@H]2[C@H]([C@@H](O)C[C@@]3(C)[C@H]2CC[C@]3(O)C(=O)CO)[C@@]2(C)C=CC(=O)C=C12 | -4.72
3. CN1CC2c3ccccc3Oc3ccc(Cl)cc3C2C1 (stereo not drawn) [Asenapine maleate] | 40.8

QUERY: # get_value(readout='activity during period 15', item= Cc1cccc(CN2CCN(C(c3ccccc3)c3ccc(Cl)cc3)CC2)c1 (stereo not drawn) [Meclizine dihydrochloride] )
RESULT: 8.13

QUERY: I would be grateful if you could share the reported activity during period 15 for Nc1ncn([C@@H]2O[C@H](CO)[C@@H](O)[C@H]2O)c(=O)n1 .
RESULT: 1.42

QUERY: Dear colleague, I am looking for the recorded activity during period 15 of the following compound: CCc1c2c(nc3ccc(OC(=O)N4CCC(N5CCCCC5)CC4)cc13)-c1cc3c(c(=O)n1C2)COC(=O)[C@]3(O)CC
RESULT: -8.3

QUERY: Request the reported activity during period 15 associated with COc1ccccc1Oc1c(NS(=O)(=O)c2ccc(C(C)(C)C)cc2)nc(-c2ncccn2)nc1OCCO
RESULT: -4.44

QUERY: Quick check: activity during period 15 of CC1=Nc2ccc(Cl)cc2S(=O)(=O)N1 [Diazoxide] ?
RESULT: 2.35

====

tested on: Danio rerio larvae (5 dpf); experiment: optomotor response to fast red moving lines, difference vs DMSO (percentage points (treated minus DMSO)); higher = more of the behaviour than the DMSO vehicle control; conditions: 10 µM; exposure time: 3 h pre-incubation + 3 h imaging
Below, each entry is listed with its recorded optomotor response.

1) C=C1[C@H](CO)[C@@H](O)C[C@@H]1n1cnc2c(=O)[nH]c(N)nc21 [Entecavir] | -0.927
2) CCOc1cc(CC(=O)N[C@@H](CC(C)C)c2ccccc2N2CCCCC2)ccc1C(=O)O [Repaglinide] | -12.1
3) CCCC1O[C@@H]2C[C@H]3[C@@H]4CCC5=CC(=O)C=C[C@]5(C)[C@H]4[C@@H](O)C[C@]3(C)[C@]2(C(=O)CO)O1 (some centres undefined) [Budesonide] | 0.572

Switching to the query record.
QUERY: // fetch Danio rerio larvae (5 dpf) optomotor response for CN(C)CCc1c[nH]c2ccc(Cn3cncn3)cc12 [Rizatriptan benzoate]
RESULT: 5

Provenance of the data: the supplement of paper PMC9023506
